Measured % engagement FABP5_C127 values are reported for all entries that follow.
Target: FABP5_C127 (Homo sapiens)
Construct: endogenous in cells; host or cells: 22Rv1
Sequence (Q01469 whole entry): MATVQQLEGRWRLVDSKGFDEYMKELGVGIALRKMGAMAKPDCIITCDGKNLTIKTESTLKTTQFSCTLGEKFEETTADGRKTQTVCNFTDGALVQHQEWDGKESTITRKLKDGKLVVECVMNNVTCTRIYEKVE
Assay: IA-DTB cysteine engagement
Format: binding
Conditions: 22Rv1 cells, 20 μM probe, 1 h, relative to DMSO
The reply should contain only the number, in %.

{"columns": ["COMPOUND", "UNIT_NAME", "% engagement FABP5_C127"],
 "data": [
  ["C=CC(=O)N1C[C@@H](c2ccc(Br)cc2)[C@H]1C(=O)Nc1cccc2cccnc12 [MY-1A]", "%", 0],
  ["C=CC(=O)N1C[C@H](c2ccc(Br)cc2)[C@@H]1C(=O)Nc1cccc2cccnc12 [MY-1B]", "%", 73],
  ["C=CC(=O)N1C[C@H](c2ccc(Br)cc2)[C@H]1C(=O)Nc1cccc2cccnc12 [MY-3A]", "%", "−13"]
]}

Lab note: next compound to report on.
[Q] Please report the measured % engagement FABP5_C127 for C=CC(=O)N1C[C@H](c2ccc(Br)cc2)[C@H]1C(=O)Nc1cccc2cccnc12 [MY-3B]
[A] −60.5
